target: EGFR L858R&T790M (Homo sapiens, UniProt P00533, L858R/T790M); assay: EGFR L858R and T790M cellular phosphorylation inhibition in NCI-H1975 (MSD); conditions: NCI-H1975 cells, 4 h compound, p-EGFR(Y1068)/total EGFR; read-out: EGFR L858R and T790M mutation IC50
Sequence (P00533 25-1210 T790M/L858R): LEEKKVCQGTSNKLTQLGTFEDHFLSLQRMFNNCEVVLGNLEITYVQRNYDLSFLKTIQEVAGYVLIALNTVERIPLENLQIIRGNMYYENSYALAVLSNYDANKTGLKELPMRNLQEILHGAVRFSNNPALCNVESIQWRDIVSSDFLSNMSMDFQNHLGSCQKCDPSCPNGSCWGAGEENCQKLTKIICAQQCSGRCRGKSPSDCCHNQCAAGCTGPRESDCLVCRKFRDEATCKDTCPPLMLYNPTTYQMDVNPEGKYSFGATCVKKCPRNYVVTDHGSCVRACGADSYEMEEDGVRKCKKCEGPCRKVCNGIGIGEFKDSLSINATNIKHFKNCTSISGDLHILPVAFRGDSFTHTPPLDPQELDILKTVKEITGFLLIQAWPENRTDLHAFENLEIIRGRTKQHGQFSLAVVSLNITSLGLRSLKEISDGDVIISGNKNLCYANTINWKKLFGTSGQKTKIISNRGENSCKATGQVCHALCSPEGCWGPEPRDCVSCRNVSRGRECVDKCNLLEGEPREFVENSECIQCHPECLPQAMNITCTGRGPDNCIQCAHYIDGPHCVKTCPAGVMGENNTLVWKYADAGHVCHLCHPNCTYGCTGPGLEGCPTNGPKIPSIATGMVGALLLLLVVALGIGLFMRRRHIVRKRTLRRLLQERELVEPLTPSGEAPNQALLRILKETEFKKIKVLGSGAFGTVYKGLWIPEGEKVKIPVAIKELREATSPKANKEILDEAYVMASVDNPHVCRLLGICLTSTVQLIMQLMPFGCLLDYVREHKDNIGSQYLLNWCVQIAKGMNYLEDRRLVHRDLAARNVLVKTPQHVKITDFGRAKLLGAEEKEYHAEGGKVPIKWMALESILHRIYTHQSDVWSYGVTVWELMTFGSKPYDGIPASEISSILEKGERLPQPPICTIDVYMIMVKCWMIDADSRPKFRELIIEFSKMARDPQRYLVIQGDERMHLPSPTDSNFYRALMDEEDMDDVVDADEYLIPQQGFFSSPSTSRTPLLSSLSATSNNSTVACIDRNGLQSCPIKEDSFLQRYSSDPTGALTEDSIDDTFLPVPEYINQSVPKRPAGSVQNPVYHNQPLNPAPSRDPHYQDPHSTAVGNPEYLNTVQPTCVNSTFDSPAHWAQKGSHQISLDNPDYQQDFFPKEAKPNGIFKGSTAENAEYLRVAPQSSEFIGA
MEASUREMENT TYPE: pIC50
Would you please state pIC50, meaning minus log10 of the concentration in mol/L, as a bare number?

COMPOUND: C=CC(=O)Nc1cc(Nc2ncnc(Nc3cc(F)c(F)cc3C(C)(O)CC)n2)c(OC)cc1N1CC[C@@H]1CN(C)C (stereo partly shown)
pIC50: 9.10

Input: Find pIC50 (EGFR L858R&T790M (Homo sapiens, UniProt P00533, L858R/T790M)) for the entry C=CC(=O)Nc1cc(Nc2ncnc(Nc3cc(Cl)c(F)cc3C(C)(C)O)n2)c(OC)cc1N(C)CCN1CCCCC1
Output: 8.89

Input: Find pIC50 (EGFR L858R&T790M (Homo sapiens, UniProt P00533, L858R/T790M)) for the entry C=CC(=O)Nc1cc(Nc2ncnc(Nc3cc(Cl)c(F)cc3C(C)(C)O)n2)c(OC)cc1N(C)CCN1CCC[C@@H]1C
Output: 8.74

---

molecular target: BTK (Homo sapiens, UniProt Q06187); assay: BTK target site occupancy ELISA (PBMC); type: cell-based; conditions: BTK receptor occupancy
Where a name gives a salt, the structure may show the parent alone.
MEASUREMENT TYPE: IC50 (nM)
Write the answer as a number in nM, unit excluded.

// solved cases for IC50 follow
COMPOUND: C=CC(=O)Nc1cc(Nc2ncnc(Nc3cc(Cl)c(F)cc3C(C)(C)O)n2)c(OC)cc1N1CC[C@@H]1CN(C)C
IC50 [nM]: 1.7
//
COMPOUND: C=CC(=O)Nc1cc(Nc2nccc(Nc3cc(Cl)c(F)cc3C(C)(C)O)n2)c(OC)cc1N1CC[C@@H](NC)C1 [Compound 80, TFA salt]
IC50 [nM]: 5.7
//
COMPOUND: C=CC(=O)Nc1cc(Nc2ncnc(Nc3cc(F)c(F)cc3C(C)(C)O)n2)c(OC)cc1N1CC(CN(C)C)C1
IC50 [nM]: 1.1
//
COMPOUND: C=CC(=O)Nc1cc(Nc2nccc(Nc3cc(Cl)c(F)cc3C(C)(C)O)n2)c(OC)cc1N1CC[C@@H]1CN(C)C
IC50 [nM]: 3.8
//
COMPOUND: C=CC(=O)Nc1cc(Nc2nccc(Nc3cc(Cl)c(F)cc3C(C)(O)CC)n2)c(OC)cc1N1CC[C@@H](N(C)C)C1 (single isomer, unassigned)
IC50 [nM]: 1.7
//
COMPOUND: C=CC(=O)Nc1cc(Nc2ncnc(Nc3cc(Cl)c(F)cc3C(C)(C)O)n2)c(OC)cc1N1CC(CN(C)C)C1
IC50 [nM]: 1.3

Please look at the following compound next.
Input: // query IC50 value for entry C=CC(=O)Nc1cc(Nc2nccc(Nc3cc(Cl)c(F)cc3C(C)(C)O)n2)c(OC)cc1N1CC[C@@H](N(C)C)C1
Output: 2.9

---

biological target: human Her2 exon 20 insertion mutation YVMA (Homo sapiens, UniProt P04626, INS775YVMA); assay: Her2 Exon 20 YVMA insertion cellular phosphorylation inhibition (MSD p-Her2 Y1248/total Her2); settings: Her2 YVMAins cells, 4 h compound;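 also: lentivirally transduced NIH-3T3 cells in 1% FBS medium, electrochemiluminescent MSD read-out, graded compound concentrations at 37 °C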
Sequence (P04626 with tags, fused parts or gaps INS775YVMA): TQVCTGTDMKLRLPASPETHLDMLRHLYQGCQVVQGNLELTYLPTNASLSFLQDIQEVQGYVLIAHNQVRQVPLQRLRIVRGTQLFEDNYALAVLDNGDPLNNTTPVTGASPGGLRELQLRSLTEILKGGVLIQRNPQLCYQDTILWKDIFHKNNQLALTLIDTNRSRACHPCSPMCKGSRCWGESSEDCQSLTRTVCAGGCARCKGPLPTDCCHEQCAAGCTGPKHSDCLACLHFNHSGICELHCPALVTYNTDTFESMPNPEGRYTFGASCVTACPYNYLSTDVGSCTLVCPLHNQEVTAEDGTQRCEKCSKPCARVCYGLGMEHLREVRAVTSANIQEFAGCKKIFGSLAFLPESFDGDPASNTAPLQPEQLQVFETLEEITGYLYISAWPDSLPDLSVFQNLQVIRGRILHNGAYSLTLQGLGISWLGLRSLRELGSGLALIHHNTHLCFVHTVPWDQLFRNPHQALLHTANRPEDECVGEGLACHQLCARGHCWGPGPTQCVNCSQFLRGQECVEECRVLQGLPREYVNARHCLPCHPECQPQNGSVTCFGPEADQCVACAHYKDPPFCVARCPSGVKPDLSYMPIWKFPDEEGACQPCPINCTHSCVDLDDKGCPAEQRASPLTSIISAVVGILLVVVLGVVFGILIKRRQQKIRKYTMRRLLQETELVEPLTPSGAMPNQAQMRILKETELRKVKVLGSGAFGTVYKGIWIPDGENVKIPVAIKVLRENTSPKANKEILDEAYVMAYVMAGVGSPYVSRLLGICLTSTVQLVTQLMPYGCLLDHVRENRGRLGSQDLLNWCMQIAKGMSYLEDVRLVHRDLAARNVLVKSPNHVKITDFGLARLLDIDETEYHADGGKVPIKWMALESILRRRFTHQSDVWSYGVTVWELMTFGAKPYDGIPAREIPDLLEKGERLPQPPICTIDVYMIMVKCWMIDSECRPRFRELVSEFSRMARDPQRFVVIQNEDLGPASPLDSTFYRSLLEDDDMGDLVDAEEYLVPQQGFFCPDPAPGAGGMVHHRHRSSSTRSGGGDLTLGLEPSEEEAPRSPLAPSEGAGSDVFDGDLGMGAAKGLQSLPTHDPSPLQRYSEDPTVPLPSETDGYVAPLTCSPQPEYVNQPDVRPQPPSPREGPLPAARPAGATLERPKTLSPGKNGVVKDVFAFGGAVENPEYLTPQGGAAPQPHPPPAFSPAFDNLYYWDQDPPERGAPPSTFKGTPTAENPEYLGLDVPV
Structures can show the parent of a compound that is named as a salt.
# reported IC50; entries follow
Write the answer as a number in nM, unit excluded.

COMPOUND: C=CC(=O)Nc1cc(Nc2ncnc(Nc3cc(F)c(F)cc3C(C)(C)O)n2)c(OC)cc1N1CC[C@H]2CN(C)C[C@H]21
MEASURED TARGET: human Her2 exon 20 insertion mutation YVMA (Homo sapiens, UniProt P04626, INS775YVMA)
IC50 (nM): 534
--
COMPOUND: C=CC(=O)Nc1cc(Nc2ncc(Cl)c(Nc3cc(Cl)c(F)cc3C(C)(C)O)n2)c(OC)cc1N1CC[C@@H](N(C)C)C1
MEASURED TARGET: human Her2 exon 20 insertion mutation YVMA (Homo sapiens, UniProt P04626, INS775YVMA)
IC50 (nM): 52.6
--
COMPOUND: C=CC(=O)Nc1cc(Nc2ncnc(Nc3cc4ccn(C)c4cc3C(C)(C)O)n2)c(OC)cc1N(C)CCN(C)C
MEASURED TARGET: human Her2 exon 20 insertion mutation YVMA (Homo sapiens, UniProt P04626, INS775YVMA)
IC50 (nM): 7.8
--
COMPOUND: C=CC(=O)Nc1cc(Nc2ncnc(Nc3cc(F)c(Cl)cc3C(C)(C)O)n2)c(OC)cc1N1CCC[C@@H]1CN(C)C
MEASURED TARGET: human Her2 exon 20 insertion mutation YVMA (Homo sapiens, UniProt P04626, INS775YVMA)
IC50 (nM): 2.9
--
COMPOUND: C=CC(=O)Nc1cc(Nc2ncnc(Nc3cc(F)c(F)cc3C(C)(C)O)n2)c(OC)cc1N1CC[C@@H]1CN(C)C
MEASURED TARGET: human Her2 exon 20 insertion mutation YVMA (Homo sapiens, UniProt P04626, INS775YVMA)
IC50 (nM): 21.3

Input: Find IC50 (human Her2 exon 20 insertion mutation YVMA (Homo sapiens, UniProt P04626, INS775YVMA)) for the entry C=CC(=O)Nc1cc(Nc2nccc(Nc3cc(Cl)c(F)cc3C(C)(C)O)n2)c(OC)cc1N1CC[C@@H](N(C)C)C1
Output: 7.5

Input: Find IC50 (human Her2 exon 20 insertion mutation YVMA (Homo sapiens, UniProt P04626, INS775YVMA)) for the entry C=CC(=O)Nc1cc(Nc2nccc(Nc3cc(Cl)c(F)cc3C(C)(C)O)n2)c(OC)cc1N(C)C[C@H]1C[C@H](C)CN1C [Compound 90, formic acid salt]
Output: 27.6

Input: Find IC50 (human Her2 exon 20 insertion mutation YVMA (Homo sapiens, UniProt P04626, INS775YVMA)) for the entry C=CC(=O)Nc1cc(Nc2nccc(Nc3cc(Cl)c(F)cc3C(C)(C)O)n2)c(OC)cc1N(C)CCN(C)C
Output: 5.3

Input: Find IC50 (human Her2 exon 20 insertion mutation YVMA (Homo sapiens, UniProt P04626, INS775YVMA)) for the entry C=CC(=O)Nc1cc(Nc2ncnc(Nc3ccc(Cl)c(F)c3C(C)(C)O)n2)c(OC)cc1N(C)CCN(C)C
Output: 15.8

Input: Find IC50 (human Her2 exon 20 insertion mutation YVMA (Homo sapiens, UniProt P04626, INS775YVMA)) for the entry C=CC(=O)Nc1cc(Nc2nccc(Nc3cc(Cl)c(F)cc3C(C)(O)CC)n2)c(OC)cc1N1CC[C@@H](N(C)C)C1 (single isomer, unassigned) [Compound 76]
Output: 11.6

---

target: EGFR L858R&T790M (Homo sapiens, UniProt P00533, L858R/T790M); construct: host or cells: NCI-H1975; experiment: EGFR L858R and T790M cellular phosphorylation inhibition in NCI-H1975 (MSD); type: cell-based; conditions: NCI-H1975 cells, 4 h compound, p-EGFR(Y1068)/total EGFR; read-out: EGFR L858R and T790M mutation IC50;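 also: phosphorylated and total EGFR detected by electrochemiluminescence, cells exposed to compound in medium containing 1% FBS at 37 °C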
# reported IC50; entries follow
Write the answer as a number in nM, unit excluded.

// solved cases for IC50 follow
COMPOUND: C=CC(=O)Nc1cc(Nc2ncnc(Nc3cc(Cl)c(F)cc3C(C)(C)O)n2)c(OC)cc1N1CCC[C@@H]1CN(C)C [Compound 31]
MEASURED TARGET: EGFR L858R&T790M (Homo sapiens, UniProt P00533, L858R/T790M)
IC50 / nM: 0.5
//
COMPOUND: C=CC(=O)Nc1cc(Nc2ncnc(Nc3cc(F)c(Cl)cc3C(C)(C)O)n2)c(OC)cc1N1CC[C@@H]1CN(C)C [Compound 62]
MEASURED TARGET: EGFR L858R&T790M (Homo sapiens, UniProt P00533, L858R/T790M)
IC50 / nM: 0.5

Input: Find IC50 (EGFR L858R&T790M (Homo sapiens, UniProt P00533, L858R/T790M)) for the entry C=CC(=O)Nc1cc(Nc2ncnc(Nc3ccccc3C3(O)CC3)n2)c(OC)cc1N(C)CCN(C)C [Compound 2]
Output: 0.5

Input: Find IC50 (EGFR L858R&T790M (Homo sapiens, UniProt P00533, L858R/T790M)) for the entry C=CC(=O)Nc1cc(Nc2nccc(Nc3cc(Cl)c(F)cc3C(C)(C)O)n2)c(OC)cc1N1CC(F)(F)C[C@@H]1CN(C)C [Compound 82]
Output: 0.9

Input: Find IC50 (EGFR L858R&T790M (Homo sapiens, UniProt P00533, L858R/T790M)) for the entry [2H]C([2H])([2H])N(CCN(C)c1cc(OC)c(Nc2ncnc(Nc3cc(F)c(Cl)cc3C(C)(C)O)n2)cc1NC(=O)C=C)C([2H])([2H])[2H] [Compound 37]
Output: 0.5
